Reported PBM binding z-score is given for each of the following sequences.
- System: THRa:RXRa (NR concentration 90 nM, RXRa partner concentration 90 nM)
- EXPERIMENT_NOTES: PBM binding z-score (relative to random genomic background probes); higher = stronger binding; sequences stand for … in GC…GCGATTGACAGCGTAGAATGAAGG
// keep it numeric: no unit symbol after the value

Here is how some sequences turned out for PBM binding z-score.
{"SEQ_TEXT": "TCGAGTAGGTTACGGGGGCATGCAGGGATGAAGA", "TEST_TARGET": "THRa:RXRa (NR concentration 90 nM, RXRa partner concentration 90 nM)", "PBM binding z-score": 3.28}
{"SEQ_TEXT": "TCGAGTAGGTTACGGGGGCATTCATGGATGAAGA", "TEST_TARGET": "THRa:RXRa (NR concentration 90 nM, RXRa partner concentration 90 nM)", "PBM binding z-score": 2.63}
{"SEQ_TEXT": "CCTGGCAGGCCAGGGTCACTCAAGCATTTCGCTT", "TEST_TARGET": "THRa:RXRa (NR concentration 90 nM, RXRa partner concentration 90 nM)", "PBM binding z-score": 2.96}
{"SEQ_TEXT": "TAGCATAGGTCATGCGGGCCAGTATAGTGTCGGC", "TEST_TARGET": "THRa:RXRa (NR concentration 90 nM, RXRa partner concentration 90 nM)", "PBM binding z-score": 2.55}
{"SEQ_TEXT": "CTATGTAGGTTAAGGGGGTCATTCAGTTTGAAAG", "TEST_TARGET": "THRa:RXRa (NR concentration 90 nM, RXRa partner concentration 90 nM)", "PBM binding z-score": 3.95}
{"SEQ_TEXT": "CGAATTAGGTCAAAGGACAGTGAAAGGCGACGTA", "TEST_TARGET": "THRa:RXRa (NR concentration 90 nM, RXRa partner concentration 90 nM)", "PBM binding z-score": 3.09}
{"SEQ_TEXT": "CCTGCTCGGTCAATGGTCAGCTAAAGCAGCTCGC", "TEST_TARGET": "THRa:RXRa (NR concentration 90 nM, RXRa partner concentration 90 nM)", "PBM binding z-score": -0.136}
{"SEQ_TEXT": "ATCGAAAGGTCGAGTTGAGTATAGAGAAAGGGAA", "TEST_TARGET": "THRa:RXRa (NR concentration 90 nM, RXRa partner concentration 90 nM)", "PBM binding z-score": 2.23}

Form field PBM binding z-score, entry CTATGTAGGTTAAGGGTGTCATTCAGTTTGAAAG : 1.04

Form field PBM binding z-score, entry CGAACTAGGTTACCAGGACAGTGAAGAGGTTGGA : 1.62

Form field PBM binding z-score, entry GCTGCTAGGTCAGGTTGGTCGGCTAACGGGTACG : 1.5

Form field PBM binding z-score, entry TAGCCTAGGCCATGGGCCAGTATACCACGCGAAC : -0.253

# credit: the supplement of paper PMC6555819
